Target: A/H3N2 influenza NA (Influenza A virus (H3N2), UniProt Q91IQ5)
Type: biochemical, A/H3N2 influenza virus (clinical isolate from Hong Kong)
Settings: 10 µM
Each entry below carries its reported Inhibitory rate against A/H3N2 influenza NA.
Report the figure in % without appending any unit label.

Reference set, count: 3
CCC(CC)O[C@@H]1C=C(C(=O)O)C[C@H](NC(=O)c2cc(C3CC3)nn2-c2ccccc2)[C@H]1NC(C)=O [Compound 26a] | 30.41
CCC(CC)O[C@@H]1C=C(C(=O)O)C[C@H](NC(=O)c2cc(-c3ccc(Cl)cc3)nn2CC2CCC2)[C@H]1NC(C)=O [Compound 16b] | 39.81
CCC(CC)O[C@@H]1C=C(C(=O)O)C[C@H](NC(=O)c2cnn(-c3ccc(Cl)cc3)c2)[C@H]1NC(C)=O | 25.67

# context switch: different compound, same Inhibitory rate against A/H3N2 influenza NA
Sample CCC(CC)O[C@@H]1C=C(C(=O)O)C[C@H](NC(=O)c2cc(-c3ccc(C(F)(F)F)cc3)n[nH]2)[C@H]1NC(C)=O [Compound 12d] ; Inhibitory rate against A/H3N2 influenza NA observed: 46.7

Data credit: paper PMC8073777
